Please go through the items and note down their EC50.
Tested on: STAT1 (phosphorylated at Tyr701) in NCI-H1373 cells
Test: Phospho-STAT1 (Tyr701) LANCE Ultra TR-FRET detection assay
Assay type: cell-based
Conditions: Homo sapiens, NCI-H1373, 48 h, induction of pSTAT1 in NCI-H1373 cells, 48 hours incubation; normalized to 10 uM positive control and DMSO; 4-parameter fit; read-out: NH1373 pSTAT1 EC50
Provide the reading as a plain figure in nM.

// query What value of EC50 has been recorded for this entry: CC(C)(O)c1cnc(-c2cc3ccn(C[C@@H]4CCC[C@H](Oc5cn[nH]c(=O)c5C(F)(F)F)C4)c(=O)c3c(F)c2F)nc1
// result 1.56

// query Moving on to the next compound: O=c1[nH]ncc(N[C@H]2C[C@@H](Cn3ccc4cc(-c5ncc(C(F)(F)F)cn5)c(F)cc4c3=O)CC(F)(F)C2)c1C(F)(F)F (single isomer, unassigned)
// result 100

// query Moving on to the next compound: CC(O)c1cnc(-c2cc3ccn(C[C@@H]4CCC[C@H](Nc5cn[nH]c(=O)c5C(F)(F)F)C4)c(=O)c3cc2F)nc1 (stereo partly drawn)
// result 6.86

// query Moving on to the next compound: O=C1c2cc(F)c(-c3ncc(C(F)(F)F)cn3)cc2CCN1C[C@@H]1CCC[C@H](Nc2cn[nH]c(=O)c2C(F)(F)F)C1
// result 4.56

// query Moving on to the next compound: O=c1[nH]ncc(O[C@H]2CCC[C@@H](Cn3cc(F)c4cc(-c5ncc(OC(F)F)cn5)c(F)c(F)c4c3=O)C2)c1C(F)(F)F
// result 1.29

// query Moving on to the next compound: O=c1[nH]ncc(N[C@H]2CCC[C@@H](Cn3cnc4cc(-c5ncc(OC(F)F)cn5)c(F)cc4c3=O)C2)c1C(F)(F)F
// result 3.78
